Assay: Pharmacokinetics in male SD rats (cassette dosing, IV and PO), plasma level by LC/MS/MS
Format: in vivo
Settings: male SD rat, PO 5 mg/kg oral gavage, read-out: PO AUC
Description: Male SD rats were fasted overnight. Compounds of the invention were dissolved in dimethyl acetamide at 10 times the final concentration, then Solutol HS 15 (BASF) was added to a final concentration of 10%. […] The plasma was extracted with acetonitrile and the level of compound was analyzed by LC/MS/MS. The level of compound in plasma was calculated from a standard curve in rat plasma. The IV clearance (L/h/kg) and area under the curve (h*ng/mL) were calculated using WinNonLin software. […]
Each item that follows carries a reported AUC.

Look over these answered cases.
Quick one: AUC for Nc1ccc(-c2cccs2)cc1NC(=O)c1ccc2[nH]cnc2c1 ?
81800 to 82000 ng·h/mL

Quick one: AUC for Nc1ccc(-c2cccs2)cc1NC(=O)c1ccc2c(c1)CC(=O)N2CCN1CCOCC1 ?
11400 to 11600 ng·h/mL

Quick one: AUC for CN1C(=O)Cc2cc(C(=O)Nc3cc(-c4ccccc4)ccc3N)ccc21 ?
9450 to 9550 ng·h/mL

Quick one: AUC for Nc1ccc(-c2cccs2)cc1NC(=O)c1ccc2c(c1)CC(=O)N2 ?
61200 to 61400 ng·h/mL

Quick one: AUC for Nc1ccc(-c2cccs2)cc1NC(=O)c1ccc2[nH]c(C3CC3)nc2c1 ?
65200 to 65400 ng·h/mL

# context switch: different compound, same AUC
Quick one: AUC for Nc1ccc(-c2cccs2)cc1NC(=O)c1ccc2c(c1)CC(=O)N2CC1CC1 ?
8000 to 8100 ng·h/mL
